# SYSTEM: T1, monkey CTLA-4, full length, on transfected HEK293 cells (monkey)
# T1 construct: whole, on cells; also called cCTLA-4; HEK293-cCTLA-4
# TEST DESCRIPTION: FACS, 293F-cCTLA-4 cells
OBSERVABLE: MFI at 200 nM
Just the number, please, no unit attached.

INSERT INTO assay_data (binder, value_observed) VALUES
  ('40C4C6 (chimeric antibody purified from hybridoma supernatant) (antibody, V domains shown, also called mAb09; mAb009) VH: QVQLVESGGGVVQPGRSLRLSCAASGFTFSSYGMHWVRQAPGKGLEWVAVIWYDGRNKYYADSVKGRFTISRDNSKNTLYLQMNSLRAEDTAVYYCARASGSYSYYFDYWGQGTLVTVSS VL: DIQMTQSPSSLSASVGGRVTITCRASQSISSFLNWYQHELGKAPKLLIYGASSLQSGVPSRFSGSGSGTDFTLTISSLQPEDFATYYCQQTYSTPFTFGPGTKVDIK', 643),
  ('92C8B6 (chimeric antibody purified from hybridoma supernatant) (antibody, V domains shown, also called mAb42; mAb042) VH: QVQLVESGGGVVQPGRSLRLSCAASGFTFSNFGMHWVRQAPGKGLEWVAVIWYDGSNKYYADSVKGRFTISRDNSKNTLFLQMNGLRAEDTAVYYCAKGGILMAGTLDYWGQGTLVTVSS VL: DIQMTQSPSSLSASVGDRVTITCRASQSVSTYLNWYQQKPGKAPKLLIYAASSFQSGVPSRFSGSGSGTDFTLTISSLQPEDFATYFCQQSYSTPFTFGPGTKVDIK', 711);

Alright, here's another binder for you.
query: Name the recorded MFI at 200 nM of the item 31C12F3 (chimeric antibody purified from hybridoma supernatant) (antibody, V domains shown, also called mAb010) VH: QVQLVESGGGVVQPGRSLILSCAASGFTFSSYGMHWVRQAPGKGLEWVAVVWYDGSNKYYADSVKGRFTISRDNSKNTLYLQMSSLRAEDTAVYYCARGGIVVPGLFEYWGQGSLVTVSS VL: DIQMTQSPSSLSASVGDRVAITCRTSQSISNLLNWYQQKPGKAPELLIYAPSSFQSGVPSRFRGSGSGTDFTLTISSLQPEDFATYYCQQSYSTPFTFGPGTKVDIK in your answer.
result: 668

Origin of measurements: patent US20210324080A1
